# system: T1, NPNA8 peptide (Plasmodium falciparum (isolate 3D7)., not fully specified)
# T1 construct: source: synthetic peptide (InnoPep Inc, purity >=97%)
# T1 chain: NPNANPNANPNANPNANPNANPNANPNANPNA
# assay_info: BLI
# assay_context: both partners purified
Labelling: Kd reported below 20 nM becomes rule met; at or above becomes rule not met.

Solved cases (6 shown):
{"binder": "356 Fab (Fab, V domains shown, source: ExpiCHO cells, purified (mAb Select PrismA or Capture Select, SEC)) VH: QVQLVESGGGVVQPGRSLRLSCAASGFTFRNFGMHWVRQTPGKGLEWVAVIWHDGSNKFYADSVEGRFTISRDNSKNMIYLQMNSLRVEDTAIYYCARDSLFYDHDNSGYYGYWGQGTLVTVSS VL: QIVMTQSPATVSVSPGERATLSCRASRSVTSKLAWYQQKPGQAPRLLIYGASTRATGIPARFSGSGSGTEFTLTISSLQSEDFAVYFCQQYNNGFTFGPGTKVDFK", "classification": "rule met"}
{"binder": "356R Fab (Fab, V domains shown, also called Fab356R; germline-reverted 356; source: ExpiCHO cells, purified (mAb Select PrismA or Capture Select, SEC)) VH: QVQLVESGGGVVQPGRSLRLSCAASGFTFSSYGMHWVRQTPGKGLEWVAVIWHDGSNKFYADSVKGRFTISRDNSKNMIYLQMNSLRVEDTAIYYCARDSLFYDHDNSGYYGYWGQGTLVTVSS VL: EIVMTQSPATVSVSPGERATLSCRASQSVTSKLAWYQQKPGQAPRLLIYGASTRATGIPARFSGSGSGTEFTLTISSLQSEDFAVYFCQQYNNGFTFGPGTKVDFK", "classification": "rule not met"}
{"binder": "364 Fab (Fab, V domains shown, source: ExpiCHO cells, purified (mAb Select PrismA or Capture Select, SEC)) VH: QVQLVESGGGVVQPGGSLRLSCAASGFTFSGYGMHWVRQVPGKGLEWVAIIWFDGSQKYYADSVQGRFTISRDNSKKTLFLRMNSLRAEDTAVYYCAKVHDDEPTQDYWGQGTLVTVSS VL: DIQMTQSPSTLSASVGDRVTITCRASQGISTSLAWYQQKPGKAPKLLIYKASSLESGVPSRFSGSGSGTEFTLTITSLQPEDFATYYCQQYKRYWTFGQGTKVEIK", "classification": "rule met"}
{"binder": "227 Fab (Fab, V domains shown, source: ExpiCHO cells, purified (mAb Select PrismA or Capture Select, SEC)) VH: QVQLVQSGGGVVQPGRSLRLSCVTSGFTFPAFGMHWVRQAPGKGLEWVAVIWYDGSKKYYADSVRGRFTISRDNSRNTLYLQMHSLRAEDTAVYYCARVKNYESSGYSQCLDYWGQGVLVTVAS VL: QSVLTQPPSVSGAPGQRVTISCTGSSSNIGAGYDVHWYQQLPGTAPKLLIYGNGNRPSGVPDRFSGSKSGTSVSLAITGLQAEDEADYYCQSYDSSLSAFVFGTGTKVTVL", "classification": "rule not met"}
{"binder": "337 Fab (Fab, V domains shown, source: ExpiCHO cells, purified (mAb Select PrismA or Capture Select, SEC)) VH: QVQLVESGGGVVQPGRSLRLSCAASGFSFSTYGMHWVRQAPGKGLEWVALIWHDGSKKFYSESVRGRFTISRDNSMDTLYLQMSSLRAEDTAVYYCARDGADYFDSTGGAFDIWGQGTMVIVSS VL: EIVMTQSPATLSVSPGERATLSCRASQSVSSNLAWYQQKPGQAPRLLIYGASTRATGIPARFSGSGSGTEFTLTISSLQSEDFATYYCQQYKTWWTFGQGTKVEIK", "classification": "rule not met"}
{"binder": "311R Fab (Fab, V domains shown, also called Fab311R; germline-reverted 311; source: ExpiCHO cells, purified (mAb Select PrismA or Capture Select, SEC)) VH: QVQLVESGGGVVPPGRSLRLSCATSGFTFSSYGMHWVRQAPGKGLEWVAIIWYDGSNKFYAASVKGRFTISRDNSKNTLYLQMNSLRVEDTAVYYCARAAYYDTSGYGDYWGQGTLVTVSS VL: QSVLTQPPSVSGAPGQTVTISCTGGSSNIGAGYDVHWYQQLPGTAPKLLIYGNINRPSGVPDRFSGSKSGTSASLAITGLQAEDEADYYCQSYDSSLSGSWVFGGGTKLTVL", "classification": "rule not met"}

Hello, I'm reviewing records and need to know if Kd of 311 Fab (Fab, V domains shown, source: ExpiCHO cells, purified (mAb Select PrismA or Capture Select, SEC)) VH: QVQLVESGGGVVPPGRSLRLSCATSGFTFSNYGMHWVRQAPGKGLEWVAIIWYDGSRNFYAASVEGRFTISRDNSKNTLYLQMNSLRVEDTAVYYCARAAYYDTSGYGDYWGQGTLVTVSS VL: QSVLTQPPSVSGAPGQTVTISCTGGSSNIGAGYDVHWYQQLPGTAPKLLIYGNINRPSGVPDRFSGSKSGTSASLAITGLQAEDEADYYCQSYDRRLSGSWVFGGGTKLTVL is below 20 nM. Could you check?
rule met

Hello, I'm reviewing records and need to know if Kd of 239R Fab (Fab, V domains shown, also called Fab239R; 239 FabR; source: ExpiCHO cells, purified (mAb Select PrismA or Capture Select, SEC)) VH: QVQLVESGGGVVQPGRSLRLSCAASRLTFSSYGMHWVRQTPGKGLEWVAVIWHDGSNKFYADSVKGRFTISRDNSKNTLYLQMNSLRDEDTAIYYCAKDWGGASDRVFDYWGRGTLVIVSS VL: DIQMTQSPSTLSASVGDRVTITCRASQSVSTSLAWYQQKPGKAPNLLIYQASTLYTGVPSRFSGSGSGTEFTLTIGSLQPDDFATYYCQHYNSYSRITFGQGTRLEIK is below 20 nM. Could you check?
rule not met

Hello, I'm reviewing records and need to know if Kd of 239 Fab (Fab, V domains shown, source: ExpiCHO cells, purified (mAb Select PrismA or Capture Select, SEC)) VH: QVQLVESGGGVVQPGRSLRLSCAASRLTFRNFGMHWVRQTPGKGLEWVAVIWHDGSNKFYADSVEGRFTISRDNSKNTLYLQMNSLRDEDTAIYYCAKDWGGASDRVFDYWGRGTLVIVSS VL: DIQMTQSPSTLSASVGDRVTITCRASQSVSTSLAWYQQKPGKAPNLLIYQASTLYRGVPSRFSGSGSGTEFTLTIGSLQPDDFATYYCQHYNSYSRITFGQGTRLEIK is below 20 nM. Could you check?
rule met

Hello, I'm reviewing records and need to know if Kd of 334 Fab (Fab, V domains shown, source: ExpiCHO cells, purified (mAb Select PrismA or Capture Select, SEC)) VH: QVQLVESGGGVVQPGRSLTLSCAASGFTFSNYGMHWVRQTPGKGLAWVAIIWYDGSKTYYEDSVKGRFTISRDNSKNTLYLQMNSLRVDDTAVYYCARVRHSSSRHGSAFDLWGQGTLVTVSS VL: VIQMTQSPSTLSASVGDRVTITCRASQSVSTWLAWYQQKPGQGPKLLIYEASSLESGVPSRFSGSGSGTEFTLTISSLQPDDFATYYCQQYNSYSFWTFGQGTKVEIK is below 20 nM. Could you check?
rule not met
